Assay: Circular dichroism (CD) of the selected peptide, percentage of alpha-helix
Format: physicochemical
Conditions: relative to Rev peptide (natural RRE RNA binding peptide)
Where no end group is shown, it is not given here.
Reported values of degree of alpha-helices, comparison with Rev peptide (number in parenthesis) for individual entries
Give the figure by itself; no unit, no explanation.

SUBSTANCE	OBS_VALUE
LKK*LLKLLKKLLK*LKG (LKK(dimethyl)LLKLLKKLLK(dimethyl)LKG-NH2) [peptide 18, K* is dimethylated lysine]	0.71
LKKLLKLLKKLLK*LKG (LKKLLKLLKKLLK(dimethyl)LKG-NH2) [peptide 7, K* is dimethylated lysine]	0.40

### Prompt I have this substance here, LKK*LLKLLKKLLKLKG (LKK(dimethyl)LLKLLKKLLKLKG-NH2) [peptide 3, K* is dimethylated lysine] , and I need its recorded degree of alpha-helices, comparison with Rev peptide (number in parenthesis).
### Response 0.72

### Prompt I have this substance here, LKKLLKLLKKLLKLKG [peptide 1] , and I need its recorded degree of alpha-helices, comparison with Rev peptide (number in parenthesis).
### Response 2.2

---

Molecular target: RRE RNA of HIV-1
Assay: Binding capacity of peptide to RRE RNA, fluorescence anisotropy in competition with CRP probe
pKd: −log10 of the molar value. Where no end group is shown, it is not given here.
PROPERTY_NAME: pKd

### Prompt I have this substance here, LKK*LLKLLK*KLLKLKG (LKK(dimethyl)LLKLLK(dimethyl)KLLKLKG-NH2) [peptide 16, K* is dimethylated lysine] , and I need its recorded pKd.
### Response > 9.00

---

Assay: Circular dichroism (CD) of the selected peptide, percentage of alpha-helix
Type: physicochemical
Conditions: relative to Rev peptide (natural RRE RNA binding peptide)
Where no end group is shown, it is not given here.
PROPERTY_NAME: degree of alpha-helices, comparison with Rev peptide (number in parenthesis)

# count of solved cases: 2
SUBSTANCE	OBS_VALUE
LKKLLKLLK*KLLK*LKG (LKKLLKLLK(dimethyl)KLLK(dimethyl)LKG-NH2) [peptide 25, K* is dimethylated lysine]	1.0
LKK*LLKLLK*KLLKLKG (LKK(dimethyl)LLKLLK(dimethyl)KLLKLKG-NH2) [peptide 16, K* is dimethylated lysine]	2.0

Next substance, please.
### Prompt I have this substance here, LK*KLLKLLK*KLLK*LKG (LK(dimethyl)KLLKLLK(dimethyl)KLLK(dimethyl)LKG-NH2) [peptide 33, K* is dimethylated lysine] , and I need its recorded degree of alpha-helices, comparison with Rev peptide (number in parenthesis).
### Response 1.1
